This collection of values is drawn from paper PMC4434323.

Could you please report measured binding signal (PBM E-score (-0.5 to 0.5)) for the items listed next?
Test system: C34D1.1 (C34D1.1) (Caenorhabditis elegans)
Sequence: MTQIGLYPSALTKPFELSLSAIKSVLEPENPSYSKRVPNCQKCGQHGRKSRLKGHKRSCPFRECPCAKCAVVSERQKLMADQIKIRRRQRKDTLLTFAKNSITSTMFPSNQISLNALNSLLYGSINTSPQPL
Just the number.

Prompt: I'd like to know its binding signal (PBM E-score (-0.5 to 0.5)). The sequence in question is CATGTTTC (double strand) [8-mer CATGTTTC]
Response: 0.469

Prompt: I'd like to know its binding signal (PBM E-score (-0.5 to 0.5)). The sequence in question is ATAGTTTC (double strand) [8-mer ATAGTTTC]
Response: 0.47

Prompt: I'd like to know its binding signal (PBM E-score (-0.5 to 0.5)). The sequence in question is AATGTTTC (double strand) [8-mer AATGTTTC]
Response: 0.497

Prompt: I'd like to know its binding signal (PBM E-score (-0.5 to 0.5)). The sequence in question is ATGAAACA (double strand) [8-mer ATGAAACA]
Response: 0.486

Prompt: I'd like to know its binding signal (PBM E-score (-0.5 to 0.5)). The sequence in question is TGTTTCAA (double strand) [8-mer TGTTTCAA]
Response: 0.485

Prompt: I'd like to know its binding signal (PBM E-score (-0.5 to 0.5)). The sequence in question is TGTTGCAA (double strand) [8-mer TGTTGCAA]
Response: 0.469

Prompt: I'd like to know its binding signal (PBM E-score (-0.5 to 0.5)). The sequence in question is GTGAAACA (double strand) [8-mer GTGAAACA]
Response: 0.484

Prompt: I'd like to know its binding signal (PBM E-score (-0.5 to 0.5)). The sequence in question is AAACATTT (double strand) [8-mer AAACATTT]
Response: 0.473

Prompt: I'd like to know its binding signal (PBM E-score (-0.5 to 0.5)). The sequence in question is AGAAACAT (double strand) [8-mer AGAAACAT]
Response: 0.492

Prompt: I'd like to know its binding signal (PBM E-score (-0.5 to 0.5)). The sequence in question is ATGTTTCA (double strand) [8-mer ATGTTTCA]
Response: 0.498

Prompt: I'd like to know its binding signal (PBM E-score (-0.5 to 0.5)). The sequence in question is AATGTTGC (double strand) [8-mer AATGTTGC]
Response: 0.47

====

Molecular target: C46E10.8 (C46E10.8) (Caenorhabditis elegans) (UniProt O44719)
Sequence: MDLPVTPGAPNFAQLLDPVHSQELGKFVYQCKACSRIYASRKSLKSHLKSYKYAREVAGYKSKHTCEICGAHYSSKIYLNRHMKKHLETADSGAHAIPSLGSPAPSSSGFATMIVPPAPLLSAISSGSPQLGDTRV
Experimental Readout: binding signal (PBM E-score (-0.5 to 0.5))
Just the number.

Prompt: I'd like to know its binding signal (PBM E-score (-0.5 to 0.5)). The sequence in question is TAAATTTA (double strand) [8-mer TAAATTTA]
Response: 0.459

Prompt: I'd like to know its binding signal (PBM E-score (-0.5 to 0.5)). The sequence in question is ATAAATTA (double strand) [8-mer ATAAATTA]
Response: 0.451

Prompt: I'd like to know its binding signal (PBM E-score (-0.5 to 0.5)). The sequence in question is AATTTATA (double strand) [8-mer AATTTATA]
Response: 0.457

Prompt: I'd like to know its binding signal (PBM E-score (-0.5 to 0.5)). The sequence in question is AATTTATG (double strand) [8-mer AATTTATG]
Response: 0.465
